# measured-target: T1, TRBP-dsRBD1 (UniProt Q15633-2 9-85)
# T1 sequence: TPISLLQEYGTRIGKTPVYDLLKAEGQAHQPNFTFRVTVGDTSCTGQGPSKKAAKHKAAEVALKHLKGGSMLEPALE
# protocol: EMSA; apparent Kd; nH 2.6; 50 mM sodium cacodylate pH 7.0, 50 mM potassium glutamate, 5% glycerol; EMSA 0.5 pM RNA, 30 min at room temperature, gel 0.25X TBE at 10 C; CD at 10 C with 5-15 uM RNA
# measurement-conditions: protein: recombinant; label: 5'-32P top strand (EMSA); blunt
reported-endpoint: pKd
Give only the number. pKd is defined as minus log10 of concentration in molar units.

Item ds44 (dsRNA) RNA 1: GGUCAGCAGUGCCUUAGCAGCACGUAAAUAUUGGCGUUAAGACC RNA 2: GGUCUUAACGCCAAUAUUUACGUGCUGCUAAGGCACUGCUGACC : provide pKd
6.10
